PROTOCOL_SUMMARY: growth suppression of beta-catenin knockout HCT116, pilot screen, human colon tumor cells (AID 823);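 note: 0% = wells killed by 20 µM Hyamine and 100% = untreated DMSO cell wells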
TEST_PARAMETERS: CellTiter-Glo, 60 h, at 10 µM, stronger effect = lower value
Results filed as inconclusive are left out.
MEASUREMENT_LABEL: viability (%)
Unit % implied. Number only.

Enquiry: viability lookup needed for "CCc1c(C)nc(SCC(=O)Nc2ccc(Br)cc2)[nH]c1=O" , thanks.
Return: 98.3

Enquiry: viability lookup needed for "COCCn1c(=O)[nH]c2cc(C(=O)NCCN3CCN(c4ccccc4F)CC3)ccc2c1=O" , thanks.
Return: 94.3

Enquiry: viability lookup needed for "Cn1c(=O)oc2cc(S(=O)(=O)N3CCC(C(=O)N4CC=C(c5ccccc5)CC4)CC3)ccc21" , thanks.
Return: 98.9

Enquiry: viability lookup needed for O=C(C1=C(O)C(=O)N(CCc2ccccc2)C1c1cccnc1)c1ccco1 (centres undefined) , thanks.
Return: 104

Enquiry: viability lookup needed for "O=C(NCN1CCc2ccccc2C1)c1cnccn1" , thanks.
Return: 96.3

Enquiry: viability lookup needed for "O=C(Cn1cc2c(n1)CCCCC2)NC1CCCCCC1" , thanks.
Return: 97.1

----------
Below, each entry is listed alongside its reported viability.
PROTOCOL_SUMMARY: reversal of MRP1-mediated doxorubicin resistance, pilot screen, H69AR cells, doxorubicin co-treatment (AID 601)
TEST_PARAMETERS: H69AR cells, CellTiter-Glo, 72 h; compound alone cytotoxicity; at 10 µM
Unit % implied. Number only.

CN(CCO)CC(O)Cn1cnc2c1c(=O)n(C)c(=O)n2C (centres undefined) (tested in a mixture with another compound); 83.6
COC(=O)CSc1nc(C)c(C(C)=O)cc1C#N; 90.1
CSc1ccccc1NC(=O)c1c(Br)cnn1C; 101
Cn1c(=O)n(Cc2ccc(F)cc2)c(=O)c2c1nc1n2CCCN1Cc1ccccc1; 70.1
Cc1ccc(-n2c(=O)c(C#N)cc3c(=O)n4ccccc4nc32)cc1; 97

Enquiry: viability lookup needed for Cc1ccc(CN2C(=O)CCC2C(=O)NCC2CCCO2)cc1 (centres undefined) , thanks.
Return: 103

Enquiry: viability lookup needed for O=C1CCCC2=C1C(c1ccc(Br)cc1)c1c([nH]c(=S)[nH]c1=O)N2 (centres undefined) , thanks.
Return: 91.7

Enquiry: viability lookup needed for "Cc1cccc(Cn2c(=O)n(Cc3ccco3)c(=O)c3ccccc32)c1" , thanks.
Return: 92.5

----------
PROTOCOL_SUMMARY: reversal of MRP1-mediated doxorubicin resistance, pilot screen, H69AR cells, doxorubicin co-treatment (AID 601)
TEST_PARAMETERS: H69AR cells + 2 uM doxorubicin, CellTiter-Glo, 72 h; at 10 µM; stronger effect = higher value
Activity calls are given as the source filed them.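 The calls were made as follows: active = viability loss from added drug above about 55%, and viability with drug at most 40%, in both replicates (limit read from the data, passing the limit was not always enough); inconclusive = both conditions met in only one replicate; inactive = neither replicate meets both conditions.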
Below, each entry is listed alongside its reported differential viability (reversal).

Cc1ccc(C)n1NC(=O)c1ccco1; -9.64% (inactive)

Enquiry: differential viability (reversal) lookup needed for "CCC(C)(C)NC(=O)CN(Cc1ccc2c(c1)OCO2)C(=O)CCC(=O)Nc1ccccn1" , thanks.
Return: 2.38% (inactive)

Enquiry: differential viability (reversal) lookup needed for "COc1ccc2c(C(F)(F)F)cc(=O)oc2c1C" , thanks.
Return: 6.5% (inactive)

Enquiry: differential viability (reversal) lookup needed for "O=C(c1cccs1)N1CCN=C1SCc1ccccc1" , thanks.
Return: 6.13% (inactive)

----------
PROTOCOL_SUMMARY: reversal of MRP1-mediated doxorubicin resistance, pilot screen, H69AR cells, doxorubicin co-treatment (AID 601)
TEST_PARAMETERS: H69AR cells, CellTiter-Glo, 72 h; compound alone cytotoxicity; at 10 µM
MEASUREMENT_LABEL: viability

// known answers, use as guide
Cc1cc(C)c2c(n1)nn1c(C3CC3)cc(C(F)(F)F)nc21; 92.4%
O=C(N1CCN(Cc2ccccc2)CC1)C12CC3CC(CC(C3)C1)C2; 83.4%
Cc1cccc(-c2cc3nc4c(c(N5CCOCC5)n3n2)CCCC4)c1; 76%

Enquiry: viability lookup needed for "CC(C)Cn1c(=O)c(C2=NS(=O)(=O)c3ccccc3N2)c(O)c2ccccc21" , thanks.
Return: 98.1%

Enquiry: viability lookup needed for "CCCC(=O)O[C@]1(C(=O)CCl)[C@@H](C)C[C@H]2[C@@H]3CCC4=CC(=O)C=C[C@]4(C)[C@@]3(F)C(=O)C[C@@]21C" , thanks.
Return: 87.8%

Enquiry: viability lookup needed for "COc1ccc(OC)c(C(=O)c2coc3ccc(O)c(CN4CCOCC4)c23)c1" , thanks.
Return: 90.1%

Enquiry: viability lookup needed for "COc1ccccc1CNS(=O)(=O)c1ccc(NC(C)=O)cc1" , thanks.
Return: 92.9%

Enquiry: viability lookup needed for "Cc1cccc(Nc2ccccc2C(=O)O)c1C" , thanks.
Return: 99.4%

Enquiry: viability lookup needed for "COc1cccc(N2CCN(CC(=O)NCc3cccs3)CC2)c1" , thanks.
Return: 99%

Enquiry: viability lookup needed for "CCN(CC)CCNC(=O)c1ccc(N)cc1" , thanks.
Return: 88.1%

Enquiry: viability lookup needed for "c1ccc(-c2noc(C3CCCCC3)n2)nc1" , thanks.
Return: 102%

Enquiry: viability lookup needed for "O=C(c1ccco1)N1CCN(c2ccc(Cl)cc2)CC1" , thanks.
Return: 99.8%

Enquiry: viability lookup needed for "Cc1cc(NC(=O)Cc2cn3ccsc3n2)n(-c2ccccc2)n1" , thanks.
Return: 94.9%

Enquiry: viability lookup needed for "CCOC(=O)N1CCN(S(=O)(=O)c2cc(C)c(C)cc2C)CC1" , thanks.
Return: 95.3%

Enquiry: viability lookup needed for "CCOC(=O)c1cccc(NC(=O)CSc2nc3ccccc3c(=O)n2CC)c1" , thanks.
Return: 71.1%

----------
PROTOCOL_SUMMARY: viability gain of MRP-1-high H69AR cells under doxorubicin, pilot screen, MRP-1 activator project, CellTiter-Glo, duplicate (AID 807);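 note: compound pretreatment 18-22 h then 72 h combined with doxorubicin; 0% = doxorubicin alone and 100% = vehicle without doxorubicin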
TEST_PARAMETERS: H69AR viability with doxorubicin, CellTiter-Glo luminescence; at 10 µM; stronger effect = higher value
MEASUREMENT_LABEL: viability increase (%)
Unit % implied. Number only.

O=C(COc1ccc(S(=O)(=O)NC2CCCCC2)cc1)N1CCN(c2ccc(F)cc2)CC1; -0.23
CCn1c(=NC(=O)CN2C(=O)CCC2=O)sc2c(OC)ccc(OC)c21; -2.94
CCSCCOC(=O)C1=C(C)NC(=O)NC1c1ccc2c(c1)OCO2 (stereo unspecified); -1.35

Enquiry: viability increase lookup needed for "CCOC(=O)c1nnn(-c2nonc2N)c1-c1ccccc1" , thanks.
Return: -0.46

Enquiry: viability increase lookup needed for "Cc1ccccc1-n1c(=O)cc(N2CCCCCC2)[nH]c1=O" , thanks.
Return: -2.23

Enquiry: viability increase lookup needed for CCOC(=O)C1CCCN(C(=O)CC(C)c2ccccc2)C1 (stereo unspecified) , thanks.
Return: -1.25

Enquiry: viability increase lookup needed for "Cn1c(=O)[nH]c(=O)c2c1nc(Sc1ncccn1)n2CCCc1ccccc1" , thanks.
Return: -4.15

Enquiry: viability increase lookup needed for Cc1cc(C)c(S(=O)(=O)NCC2CCC(C(=O)NCCCN3CCOCC3)CC2)c(C)c1 (stereo unspecified) , thanks.
Return: -3.2

----------
PROTOCOL_SUMMARY: growth inhibitors of H69AR lung tumor, primary screen, human, duplicate replicates (AID 580);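 note: 100% = mean luminescence of untreated wells and 0% = no signal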
TEST_PARAMETERS: H69AR lung tumor cells viability, ATP luminescence, 72 h; at 10 µM
The source made the active and inactive calls.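 The calls were made as follows: active = viability at or under a set limit in both replicates, limit being median viability minus 3 SD (cut at about 48% in these data, passing the limit was not always enough); inconclusive = at or under the limit in just one replicate; inactive = at or above the limit in both replicates.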
Pick one and only one: active, inactive

Observe how each entry below is paired with its result.
Cc1ccc(-c2nnn(CC(=O)N(CC3CCCO3)C(C(=O)NC(C)(C)C)c3ccc(F)cc3)n2)o1 (stereo not given); inactive
COc1ccc2cc(C(c3nnnn3C3CCCCC3)N3CCCCCC3)c3nnnn3c2c1 (stereo not given); inactive
COC(=O)c1ccccc1NC(=O)Cn1ccnc1; inactive

Enquiry: Name the outcome recorded for "Cc1cc(Cl)c(S(=O)(=O)N2CCN(c3ccc(F)cc3)CC2)cc1OCC(N)=O" in the assay.
Return: inactive

Enquiry: Name the outcome recorded for "O/N=C/c1ccc(OCC(O)COc2ccc(/C=N/O)cc2)cc1" in the assay.
Return: inactive

Enquiry: Name the outcome recorded for "Cc1ccc(-c2cc(C(=O)Nc3cc(C)ccc3C)[nH]n2)c(O)c1" in the assay.
Return: inactive

Enquiry: Name the outcome recorded for "CN1CCC(=C2c3ccccc3CC(=O)c3sccc32)CC1" in the assay.
Return: inactive

Enquiry: Name the outcome recorded for CC(C)COC(=O)NCC12C=CC(O1)C1C(=O)N(c3ccc(Cl)cc3)C(=O)C12 (stereo not given) in the assay.
Return: inactive

Enquiry: Name the outcome recorded for CN(CCO)CC(O)Cn1cnc2c1c(=O)n(C)c(=O)n2C (stereo not given) (tested in a mixture with another compound) in the assay.
Return: inactive

----------
PROTOCOL_SUMMARY: viability gain of MRP-1-high H69AR cells under doxorubicin, pilot screen, MRP-1 activator project, CellTiter-Glo, duplicate (AID 807);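 note: compound pretreatment 18-22 h then 72 h combined with doxorubicin; 0% = doxorubicin alone and 100% = vehicle without doxorubicin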
TEST_PARAMETERS: H69AR viability with doxorubicin, CellTiter-Glo luminescence; at 10 µM; stronger effect = higher value
Below, each entry is listed alongside its reported viability increase.
Unit % implied. Number only.

// known answers, use as guide
COCCNS(=O)(=O)c1ccc2c(c1)C(=O)c1cc(S(=O)(=O)NCCOC)ccc1-2; -0.81
Cc1cc(C)n2nc(Nc3ccccc3)cc2n1; -4.34
COc1ccc2occ(C(=O)c3ccc(N=C(C)N(C)C)cc3)c2c1; -1.53
COc1ccc(Cc2nc(-c3ccc(-n4cccc4)cc3)no2)cc1; 3.66
CCOc1cccc(C(=O)Nc2cc(-c3nn4c(C)nnc4s3)ccc2C)c1; -4.79
Cc1ccc(NC(=O)CSC2=C(C#N)C(c3ccc4c(c3)OCO4)C3=C(CCCC3=O)N2)c(C)c1 (stereo not drawn); -5.27

Enquiry: viability increase lookup needed for "O=C(COc1ccccc1)Nc1nnc(-c2ccccc2)o1" , thanks.
Return: 0.2
